Biological target: TLR9 (Homo sapiens, UniProt Q9NR96)
Construct: expressed in transfected cells; host or cells: HEK293
Sequence (Q9NR96 26-1032): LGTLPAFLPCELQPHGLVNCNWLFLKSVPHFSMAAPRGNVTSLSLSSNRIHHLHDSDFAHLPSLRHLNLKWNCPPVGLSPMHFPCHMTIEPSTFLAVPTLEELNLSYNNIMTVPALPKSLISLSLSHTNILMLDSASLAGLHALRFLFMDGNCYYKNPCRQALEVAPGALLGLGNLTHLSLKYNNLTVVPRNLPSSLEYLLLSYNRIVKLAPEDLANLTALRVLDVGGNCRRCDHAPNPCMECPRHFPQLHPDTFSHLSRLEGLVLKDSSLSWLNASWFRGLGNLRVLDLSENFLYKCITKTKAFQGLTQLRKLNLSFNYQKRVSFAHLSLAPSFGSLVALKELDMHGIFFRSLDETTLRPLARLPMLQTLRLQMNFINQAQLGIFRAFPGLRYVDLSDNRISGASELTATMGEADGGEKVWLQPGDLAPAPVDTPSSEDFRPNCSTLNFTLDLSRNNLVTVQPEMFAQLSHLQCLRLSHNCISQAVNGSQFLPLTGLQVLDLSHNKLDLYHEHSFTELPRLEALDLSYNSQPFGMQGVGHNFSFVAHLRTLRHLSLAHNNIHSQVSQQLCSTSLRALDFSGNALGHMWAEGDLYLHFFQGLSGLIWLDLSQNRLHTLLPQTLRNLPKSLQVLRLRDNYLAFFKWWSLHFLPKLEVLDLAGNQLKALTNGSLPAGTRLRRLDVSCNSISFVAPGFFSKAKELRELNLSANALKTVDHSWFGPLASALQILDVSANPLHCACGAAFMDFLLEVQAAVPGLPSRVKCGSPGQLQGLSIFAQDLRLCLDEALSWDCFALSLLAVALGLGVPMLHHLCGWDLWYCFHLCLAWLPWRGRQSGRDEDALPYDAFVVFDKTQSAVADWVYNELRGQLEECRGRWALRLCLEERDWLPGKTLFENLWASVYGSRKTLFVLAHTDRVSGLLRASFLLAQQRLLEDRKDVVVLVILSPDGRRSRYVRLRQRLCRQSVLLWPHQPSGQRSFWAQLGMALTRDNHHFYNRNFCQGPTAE
Experiment: TLR9 screening of (+)-morphinan library, SEAP reporter in HEK293 cells expressing TLR9
Assay type: cell-based
Details: 10 μM; activator ODN2006; control (no activator) 0.14, activator 1.42 OD
Overview of reported OD 650 nm (mean ± sd) across a group of compounds:
Recorded Metric: OD 650 nm (mean ± sd) (OD)

- COc1ccc2c3c1O[C@@H]1C(=O)CC[C@@H]4[C@H](C2)NCC[C@@]314 [II-12]: 0.81
- COc1ccc2c3c1OC1C(O)CC[C@@H]4[C@H](C2)N(C)CC[C@@]314 (some centres unmarked) [II-7]: 0.13
- COc1cc(Br)c2c(c1OC(C)=O)[C@@]13CCN(CC4CC4)C(C2)C1CCC(=O)C3 (some centres unmarked) [Compound I-12]: 0.13
- COc1cc(Br)c2c(c1O)[C@@]13CCN(CC4CCC4)C(C2)C1CCC(=O)C3 (some centres unmarked) [Compound I-8]: 0.11
- COC1=CCC2[C@@H]3Cc4ccc(OC)c5c4[C@]2(CCN3CC2CC2)[C@@H]1O5 (some centres unmarked) [II-95]: 0.37
- COC1=CCC2[C@@H]3Cc4ccc(OC)c5c4[C@]2(CCN3C)[C@@H]1O5 (some centres unmarked) [II-96]: 0.42
- COc1ccc2c(c1)CCN(CC1CC1)[C@@H]2Cc1ccc(OC)c(O)c1 [III-3]: 0.13
- COc1ccc2c3c1O[C@@H]1C(=O)CC[C@]4(O)[C@H](C2)N(C(C)=O)CC[C@@]314 [II-84]: 1.51
- COc1ccc2c(c1)CCN(C)[C@@H]2Cc1ccc(OC)c(O)c1 [III-5]: 0.29
- C=CCN1CC[C@]23C4=CC=C(OC)[C@H]2Oc2c(OC)ccc(c23)C[C@@H]41 [II-35]: 0.34
- COc1ccc2c3c1O[C@@H]1C(NC(C)=O)CC[C@@H]4[C@H](C2)N(C)CC[C@@]314 (some centres unmarked) [II-9]: 1.00
